system: peptide 6 (scrambled); assay: fluorescence polarization; settings: FP: 50 mM Tris/HCl pH 7.5, 100 mM NaCl, 2 mM MgCl2, 0.5 mM EDTA, 10 ug/mL BSA, 0.1 mM DTT, 0.01% Tween-20, 10 nM DNA, 60 min RT; EMSA: 10 mM Tris pH 7.5, 100 mM
MEASUREMENT_KIND: Kd (µM)
Your answer should be a plain number; it is taken to be in µM.

q: # return recorded Kd for input CGGAATCAATGACTCATTGTTACTC (double strand) [MARE23]
a: 8.1

###

molecular target: peptide 1 (stapled Nrf2-derived); test: fluorescence polarization; settings: FP: 50 mM Tris/HCl pH 7.5, 100 mM NaCl, 2 mM MgCl2, 0.5 mM EDTA, 10 ug/mL BSA, 0.1 mM DTT, 0.01% Tween-20, 10 nM DNA, 60 min RT; EMSA: 10 mM Tris pH 7.5, 100 mM
MEASUREMENT_KIND: Kd (nM)
Write down the numeric answer in nM and omit the unit.

q: Tell me its Kd given CGGAATCAATGACTCATTGTTACTC (double strand) [MARE23] as the entry.
a: 1600
